# assay.system: T1, human TMEM106B (human, UniProt Q9NUM4 2-274)
# T1 construct: Full-length, on transiently transfected HEK293 cells, or natively expressed on HeLa, U251 and A549 cells; also called huTMEM106B; huTMEM
# assay.details: FACS A549, 10 ug/ml
observable: MFI

| binder | value.observed |
| --- | --- |
| anti-TMEM106B antibody TM-48 (antibody, V domains shown) VH: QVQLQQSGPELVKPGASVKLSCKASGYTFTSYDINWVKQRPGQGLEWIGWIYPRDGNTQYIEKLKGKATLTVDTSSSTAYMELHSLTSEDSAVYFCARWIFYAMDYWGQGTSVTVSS VL: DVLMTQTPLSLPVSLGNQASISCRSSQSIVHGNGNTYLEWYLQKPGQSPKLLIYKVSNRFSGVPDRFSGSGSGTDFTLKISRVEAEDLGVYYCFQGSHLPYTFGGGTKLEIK | 2450 |
| anti-TMEM106B antibody TM-2 (antibody, V domains shown) VH: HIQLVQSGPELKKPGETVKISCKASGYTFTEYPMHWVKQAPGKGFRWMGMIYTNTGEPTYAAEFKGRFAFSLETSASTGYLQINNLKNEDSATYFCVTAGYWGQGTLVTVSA VL: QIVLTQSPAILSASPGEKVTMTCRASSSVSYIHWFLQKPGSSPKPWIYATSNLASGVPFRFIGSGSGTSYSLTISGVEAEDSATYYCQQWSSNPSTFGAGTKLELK | 3360 |
| anti-TMEM106B antibody TM-37 (antibody, V domains shown) VH: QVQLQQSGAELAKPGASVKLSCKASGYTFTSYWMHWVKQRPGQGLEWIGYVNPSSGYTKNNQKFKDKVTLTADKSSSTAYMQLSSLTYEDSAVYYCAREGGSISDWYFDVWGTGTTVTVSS VL: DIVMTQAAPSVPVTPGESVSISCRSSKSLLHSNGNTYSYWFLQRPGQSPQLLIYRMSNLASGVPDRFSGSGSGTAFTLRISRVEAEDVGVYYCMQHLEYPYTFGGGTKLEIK | 4210 |
